- TARGET_SYSTEM: FGFR1 (Homo sapiens)
- Construct: made in house; host or cells: E. coli (BL21-derived), T7 phage
- ASSAY_PROTOCOL: Kinase binding assay (kinase-tagged T7 phage, affinity beads, qPCR), Kd
- PROTOCOL_CONDITIONS: read-out: FGFR1 (Kd nM)
READOUT_LABEL: Kd

{"LINE_NOTATION": "CC(C)OCCNC1(C)CN(c2ncc(-c3n[nH]c4ccc(O[C@H](C)c5c(Cl)cncc5Cl)cc34)cc2C#N)C1", "Kd": "50 to 300 nM"}

Specify reported Kd for the compound shown: C[C@@H](Oc1ccc2[nH]nc(-c3ccc(N4CC(N)(CCC#N)C4)nn3)c2c1)c1c(Cl)cncc1Cl 1 to 50 nM

Indicate its recorded Kd; the compound in question is C[C@@H](Oc1ccc2[nH]nc(-c3cnc(N4CC(N)(CCC#N)C4)c(F)c3)c2c1)c1c(Cl)cncc1Cl 1 to 50 nM

Could you please provide reported Kd for COc1cc2[nH]nc(-c3cnc(N4CC(C)(CNC(C)C)C4)c(C#N)c3)c2cc1O[C@H](C)c1c(Cl)cncc1Cl ? Thanks! 1 to 50 nM

###

Entries and their measured Kd follow.
- TARGET_SYSTEM: FGFR3 (V555M) (Homo sapiens, UniProt P22607, V555M)
- Construct: made in house; host or cells: E. coli (BL21-derived), T7 phage
- Sequence (P22607 23-806 V555M): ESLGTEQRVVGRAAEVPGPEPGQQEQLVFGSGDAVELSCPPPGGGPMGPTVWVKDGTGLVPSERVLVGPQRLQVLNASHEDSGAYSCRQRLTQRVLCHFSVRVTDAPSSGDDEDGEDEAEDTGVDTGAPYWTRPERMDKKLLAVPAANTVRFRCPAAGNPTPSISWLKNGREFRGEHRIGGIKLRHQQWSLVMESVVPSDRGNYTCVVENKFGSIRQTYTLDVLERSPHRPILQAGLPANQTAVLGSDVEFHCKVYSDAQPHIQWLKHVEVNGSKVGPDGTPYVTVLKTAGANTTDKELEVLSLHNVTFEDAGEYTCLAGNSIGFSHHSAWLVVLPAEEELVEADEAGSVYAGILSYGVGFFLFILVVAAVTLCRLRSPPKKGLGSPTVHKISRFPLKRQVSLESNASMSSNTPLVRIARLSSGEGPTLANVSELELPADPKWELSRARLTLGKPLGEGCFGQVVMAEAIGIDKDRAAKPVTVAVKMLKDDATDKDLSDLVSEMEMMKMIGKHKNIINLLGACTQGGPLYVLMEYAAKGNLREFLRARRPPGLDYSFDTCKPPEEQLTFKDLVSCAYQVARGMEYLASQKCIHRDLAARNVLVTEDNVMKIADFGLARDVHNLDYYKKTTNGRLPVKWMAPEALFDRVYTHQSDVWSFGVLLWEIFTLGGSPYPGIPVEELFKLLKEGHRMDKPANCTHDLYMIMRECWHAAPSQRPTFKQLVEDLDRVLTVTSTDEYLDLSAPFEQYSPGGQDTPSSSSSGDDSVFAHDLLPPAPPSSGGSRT
- ASSAY_PROTOCOL: Kinase binding assay (kinase-tagged T7 phage, affinity beads, qPCR), Kd
- PROTOCOL_CONDITIONS: V555M mutant; read-out: FGFR3 (V555M) (Kd nM)

Example entries begin here.
{"LINE_NOTATION": "COc1cc2[nH]nc(-c3cnc(N4CC(C)(C)C4)nc3)c2cc1O[C@H](C)c1c(Cl)cncc1Cl", "TARGET_SYSTEM": "FGFR3 (V555M) (Homo sapiens, UniProt P22607, V555M)", "OBSERVED_VALUE": "1 to 50 nM"}
{"LINE_NOTATION": "C[C@@H](O)CNC1(C)CN(c2ncc(-c3n[nH]c4ccc(O[C@H](C)c5c(Cl)cncc5Cl)cc34)cc2C#N)C1", "TARGET_SYSTEM": "FGFR3 (V555M) (Homo sapiens, UniProt P22607, V555M)", "OBSERVED_VALUE": "1 to 50 nM"}

Next item in the queue.
Read off the recorded Kd for Cc1ncc(Cl)c([C@@H](C)Oc2ccc3[nH]nc(-c4cnc(N5CC(C)(OC(C)C)C5)c(C#N)c4)c3c2)c1Cl 50 to 300 nM

###

- TARGET_SYSTEM: FGFR1 (Homo sapiens, UniProt P11362)
- Construct: made in house; host or cells: E. coli (BL21-derived), T7 phage
- Sequence (P11362 22-822): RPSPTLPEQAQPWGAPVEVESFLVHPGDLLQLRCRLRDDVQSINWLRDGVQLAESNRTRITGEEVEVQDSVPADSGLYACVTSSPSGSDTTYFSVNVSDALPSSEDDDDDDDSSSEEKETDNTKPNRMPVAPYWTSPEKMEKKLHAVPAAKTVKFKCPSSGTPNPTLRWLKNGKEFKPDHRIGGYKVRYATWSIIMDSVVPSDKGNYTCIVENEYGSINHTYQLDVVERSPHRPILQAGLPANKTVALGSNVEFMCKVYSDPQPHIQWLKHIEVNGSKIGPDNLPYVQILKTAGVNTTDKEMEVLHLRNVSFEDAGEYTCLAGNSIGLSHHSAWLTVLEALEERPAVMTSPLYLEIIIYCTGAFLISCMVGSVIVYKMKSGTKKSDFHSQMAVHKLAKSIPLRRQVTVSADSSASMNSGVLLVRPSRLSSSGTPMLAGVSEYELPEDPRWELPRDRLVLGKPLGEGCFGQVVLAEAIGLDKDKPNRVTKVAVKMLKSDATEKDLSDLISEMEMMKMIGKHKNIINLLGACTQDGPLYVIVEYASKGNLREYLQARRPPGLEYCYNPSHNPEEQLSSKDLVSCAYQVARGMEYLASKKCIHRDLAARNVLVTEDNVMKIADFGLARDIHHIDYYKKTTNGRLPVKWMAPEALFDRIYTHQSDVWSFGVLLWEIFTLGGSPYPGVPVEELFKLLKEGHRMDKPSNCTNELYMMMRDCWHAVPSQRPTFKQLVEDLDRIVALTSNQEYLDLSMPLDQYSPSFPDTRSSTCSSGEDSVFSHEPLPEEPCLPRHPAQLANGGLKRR
- ASSAY_PROTOCOL: Kinase binding assay (kinase-tagged T7 phage, affinity beads, qPCR), Kd
- PROTOCOL_CONDITIONS: read-out: FGFR1 (Kd nM)
READOUT_LABEL: Kd

A selection of reference data follows.
{"COMPOUND": "C[C@@H](Oc1ccc2[nH]nc(-c3ccc(N4CC(N)(CC5CCCO5)C4)nn3)c2c1)c1c(Cl)cncc1Cl (stereo partly drawn) [Example 305]", "Kd": "1 to 50 nM"}
{"COMPOUND": "COc1cc2[nH]nc(-c3cnc(N4CC[C@@](C)(N)C4)c(F)c3)c2cc1O[C@H](C)c1c(Cl)cncc1Cl [Example 315]", "Kd": "1 to 50 nM"}
{"COMPOUND": "COCCNC1(C)CN(c2ncc(-c3n[nH]c4cc(OC)c(O[C@H](C)c5c(Cl)cncc5Cl)cc34)cc2C#N)C1 [Example 37]", "Kd": "1 to 50 nM"}
{"COMPOUND": "C[C@@H](Oc1ccc2[nH]nc(-c3ccc(N4CC(C)(NCC(=O)N(C)C)C4)nn3)c2c1)c1c(Cl)cncc1Cl [Example 314]", "Kd": "1 to 50 nM"}
{"COMPOUND": "C[C@@H](Oc1cc2c(-c3cnc(N4CC(C)(N5CCC5)C4)c(C#N)c3)n[nH]c2cc1F)c1c(Cl)cncc1Cl [Example 136]", "Kd": "1 to 50 nM"}

Given the compound CC(C)NC1(C)CN(c2ncc(-c3n[nH]c4cc(F)c(O[C@H](C)c5c(Cl)cncc5Cl)cc34)cc2F)C1 [Example 127] , write its reported Kd. 1 to 50 nM

Give the measured Kd for CNC1(C)CN(c2ccc(-c3n[nH]c4cc(F)c(O[C@H](C)c5c(Cl)cncc5Cl)cc34)cn2)C1 [Example 59] 1 to 50 nM
